System: OVCAR-3
Assay: In vitro antitumor activity against OVCAR-3 tumor cell lines
Assay type: functional
Settings: Homo sapiens
Field: class. Source value: GI50. Ranges: low bracket: < 30 nM; middle bracket: ≥ 30 nM and < 1000 nM; high bracket: ≥ 1000 nM

1) Cc1ccc2c(O)cc(-c3cccc4ccccc34)nc2n1 = low bracket
2) Cc1cc(C)c2c(O)cc(-c3cccc(F)c3)nc2n1 = low bracket
3) Cc1cc(C)c2c(O)cc(-c3cccc4ccccc34)nc2n1 = middle bracket
4) Cc1ccc2c(O)cc(-c3cccc(Cl)c3)nc2n1 = low bracket
5) Cc1cccc(-c2cc(O)c3ccc(C)nc3n2)c1 = middle bracket
6) Cc1cccc(-c2cc(O)c3c(C)cc(C)nc3n2)c1 = high bracket
7) Cc1cc(C)c2c(O)cc(-c3ccc4ccccc4c3)nc2n1 = high bracket
8) Cc1cccc(-c2cc(O)c3cc(C)cnc3n2)c1 = middle bracket
9) Oc1cc(-c2ccc3ccccc3c2)nc2ncc(Cl)cc12 = high bracket
10) Oc1cc(-c2cccc3ccccc23)nc2ncccc12 = low bracket
11) Cc1ccnc2nc(-c3ccc4ccccc4c3)cc(O)c12 = high bracket
12) Cc1cnc2nc(-c3cccc4ccccc34)cc(O)c2c1 = low bracket
13) Cc1cnc2[nH]c(-c3cccc(Cl)c3)cc(=O)c2c1 = low bracket
14) Oc1cc(-c2ccc3ccccc3c2)nc2ncccc12 = high bracket
15) Cc1ccnc2nc(-c3cccc(Cl)c3)cc(O)c12 = middle bracket
16) Cc1cc(C)c2c(O)cc(-c3cccc(Cl)c3)nc2n1 = middle bracket
17) Cc1ccnc2nc(-c3cccc4ccccc34)cc(O)c12 = low bracket
18) Cc1cnc2nc(-c3ccc4ccccc4c3)cc(O)c2c1 = middle bracket
19) Cc1ccc2c(O)cc(-c3ccc4ccccc4c3)nc2n1 = high bracket
20) Cc1ccc2c(=O)cc(-c3cccc(F)c3)[nH]c2n1 = low bracket
21) Cc1cccc(-c2cc(O)c3c(C)ccnc3n2)c1 = low bracket
22) Cc1cnc2[nH]c(-c3cccc(F)c3)cc(=O)c2c1 = low bracket

* * *

System: MDA-N
Test: In vitro antitumor activity against MDA-N tumor cell lines
Assay type: functional
Settings: Homo sapiens
attribute.measured: GI50

1) Cc1cc(C)c2c(O)cc(-c3cccc(F)c3)nc2n1 = 12.9 nM
2) Cc1ccc2c(O)cc(-c3ccc4ccccc4c3)nc2n1 = 1950 nM
3) Cc1cccc(-c2cc(O)c3ccc(C)nc3n2)c1 = 31.6 nM
4) Cc1ccc2c(O)cc(-c3cccc4ccccc34)nc2n1 = < 10 nM
5) Cc1cnc2[nH]c(-c3cccc(Cl)c3)cc(=O)c2c1 = > 100000 nM
6) Oc1cc(-c2cccc3ccccc23)nc2ncccc12 = < 10 nM
7) Cc1ccc2c(O)cc(-c3cccc(Cl)c3)nc2n1 = > 100000 nM
8) Cc1cnc2nc(-c3ccc4ccccc4c3)cc(O)c2c1 = 132 nM
9) Cc1cccc(-c2cc(O)c3cc(C)cnc3n2)c1 = < 10 nM
10) Oc1cc(-c2ccc3ccccc3c2)nc2ncccc12 = 1660 nM
11) Cc1cc(C)c2c(O)cc(-c3cccc(Cl)c3)nc2n1 = 19.1 nM
12) Oc1cc(-c2ccc3ccccc3c2)nc2ncc(Cl)cc12 = 1550 nM

* * *

Listed here: items and their measured GI50.
Test system: MDA-MB-435
Experiment: In vitro antitumor activity against MDA-MB-435 NCI 's human tumor cell lines
Type: functional
attribute.measured: GI50 (µM)

1. Cc1cc(C)c2c(O)cc(-c3ccc4ccccc4c3)nc2n1 = 2.95
2. Cc1cccc(-c2cc(O)c3ccc(C)nc3n2)c1 = 0.0324
3. Cc1ccc2c(O)cc(-c3ccc4ccccc4c3)nc2n1 = 1.58
4. Cc1ccc2c(=O)cc(-c3cccc(F)c3)[nH]c2n1 = 0.0123
5. Oc1cc(-c2ccc3ccccc3c2)nc2ncc(Cl)cc12 = 0.851
6. Cc1ccnc2nc(-c3ccc4ccccc4c3)cc(O)c12 = 0.204
7. Cc1cnc2nc(-c3ccc4ccccc4c3)cc(O)c2c1 = 0.105
8. Oc1cc(-c2ccc3ccccc3c2)nc2ncccc12 = 1.78
9. Cc1cc(C)c2c(O)cc(-c3cccc4ccccc34)nc2n1 = 0.191
10. Cc1cccc(-c2cc(O)c3c(C)cc(C)nc3n2)c1 = 20
11. Cc1cc(C)c2c(O)cc(-c3cccc(Cl)c3)nc2n1 = 0.0132
